Here the recorded solubility at 2 h is given for each entry.
assay: Measurement of solubility (HPLC of filtrate); settings: 50 mM sodium citrate-HCl buffer (pH 4.0), pH 4, aqueous buffer, thermodynamic from solid

{"columns": ["Smiles code", "Readout name", "Measured"],
 "data": [
  ["CNCC(=O)OC[C@@H]1CN(c2ccc3cc(-c4ccccc4C(F)(F)F)[nH]c(=O)c3c2)C(=O)O1.Cl", "solubility at 2 h", "> 2000 µM"]
]}

// query May I ask what solubility at 2 h has been recorded for `CC(C)[C@H](N)C(=O)OC[C@H]1CN(c2ccc3cc(-c4ccccc4C(F)(F)F)[nH]c(=O)c3c2)C(=O)O1.Cl` ?
// result > 2000 µM
